Cited source for all entries: patent EP4610269A1

TARGET OR TEST SYSTEM: uPAR-expressing HEC-265 human endometrial adenocarcinoma cells (Homo sapiens)
Sequence (Q03405 23-335): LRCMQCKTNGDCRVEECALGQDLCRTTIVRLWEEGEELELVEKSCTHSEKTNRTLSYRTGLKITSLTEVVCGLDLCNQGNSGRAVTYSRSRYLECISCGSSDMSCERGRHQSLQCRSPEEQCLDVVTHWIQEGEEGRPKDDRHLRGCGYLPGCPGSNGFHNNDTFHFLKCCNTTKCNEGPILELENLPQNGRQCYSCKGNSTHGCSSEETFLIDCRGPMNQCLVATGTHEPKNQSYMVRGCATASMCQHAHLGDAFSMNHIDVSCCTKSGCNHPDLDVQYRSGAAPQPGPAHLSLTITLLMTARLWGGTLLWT
Where a SMILES comes first, the peptide text is derived from it. Bridges are numbered along the chain shown (N, C = ends). [ ]: non-standard residue; d: D form. The star is where a group is joined. DOTA = O=C(O)CN1CCN(CC(=O)O)CCN(CC(=O)*)CCN(CC(=O)O)CC1; Pro(cis-4-F) = O=C(O)[C@@H]1C[C@H](F)CN1; Dopa = N[C@@H](Cc1ccc(O)c(O)c1)C(=O)O; Hyp = O=C(O)[C@@H]1C[C@@H](O)CN1; NMeI = CC[C@H](C)[C@H](NC)C(=O)O; Pentanoyl(4-Me) = CC(C)CCC(=O)*; Cit = NC(=O)NCCC[C@H](N)C(=O)O; Butoxycarbonyl = CCCCOC(=O)*; Nva = CCC[C@H](N)C(=O)O; Hexanoyl = CCCCCC(=O)*; Pentanoyl = CCCCC(=O)*; AEEA = NCCOCCOCC(=O)O; Aib = CC(C)(N)C(=O)O
Documented IC50 across a set of compounds

COMPOUND: CC[C@H](C)[C@@H]1NC(=O)[C@@H](C)NC(=O)[C@@H]2CCCN2C(=O)[C@H](Cc2ccccc2)NC(=O)[C@H](Cc2ccc(O)cc2)NC(=O)[C@H](CCC(N)=O)NC(=O)[C@H](CCCNC(N)=O)NC(=O)[C@@H](NC(=O)[C@H](CC(C)C)NC(=O)COCCOCCNC(=O)CN2CCN(CC(=O)O)CCN(CC(=O)O)CCN(CC(=O)O)CC2)CSSC[C@@H](C(N)=O)NC(=O)[C@H](CC(C)C)NC1=O [UPAR-245] ({DOTA-AEEA}-LC[Cit]QYFP[dA]ILC-NH2; disulfide 2-11)
IC50: ≤ 10 nM
//
COMPOUND: CCCCCC(=O)N[C@H](C(=O)N[C@@H](CC(C)C)C(=O)N[C@H]1CSSC[C@@H](C(N)=O)NC(=O)[C@H](CC(C)C)NC(=O)[C@H]([C@@H](C)CC)NC(=O)[C@H](C)NC(=O)[C@@H]2CCCN2C(=O)[C@H](Cc2ccccc2)NC(=O)[C@H](Cc2ccc(O)cc2)NC(=O)[C@H](Cc2ccc(O)cc2)NC(=O)[C@H](CCC(=O)O)NC1=O)[C@@H](C)O [UPAR-143] (Hexanoyl-TLCEYYFPAILC-NH2; disulfide 3-12)
IC50: ≤ 10 nM
//
COMPOUND: CCCCC(=O)N[C@H]1CSSC[C@@H](C(N)=O)NC(=O)[C@H](CCC)NC(=O)[C@H]([C@@H](C)CC)NC(=O)C(C)(C)NC(=O)[C@@H]2CCCN2C(=O)[C@H](Cc2ccccc2)NC(=O)[C@H](Cc2ccc(O)cc2)NC(=O)[C@H](CCCCNC(=O)CN2CCN(CC(=O)O)CCN(CC(=O)O)CCN(CC(=O)O)CC2)NC(=O)[C@H](CCCNC(N)=O)NC1=O [UPAR-299] (Pentanoyl-C[Cit]K(DOTA)YFP[Aib]I[Nva]C-NH2; disulfide 1-10)
IC50: ≤ 10 nM
//
COMPOUND: CC[C@H](C)[C@@H]1NC(=O)[C@@H](C)NC(=O)[C@@H]2CCCN2C(=O)[C@H](Cc2ccccc2)NC(=O)[C@H](Cc2ccc(O)cc2)NC(=O)[C@H](CCCCNC(C)=O)NC(=O)[C@H](CCCNC(N)=O)NC(=O)[C@@H](NC(=O)CCC(C)C)CSSC[C@@H](C(N)=O)NC(=O)[C@H](CC(C)C)NC1=O [UPAR-413] ({Pentanoyl(4-Me)}-C[Cit]K(Ac)YFP[dA]ILC-NH2; disulfide 1-10)
IC50: ≤ 10 nM
//
COMPOUND: CC[C@H](C)[C@H]1C(=O)N[C@@H](CC(C)C)C(=O)N[C@H](C(N)=O)CSSC[C@H](NC(=O)CCC(C)C)C(=O)N[C@@H](CCCNC(N)=O)C(=O)N[C@@H](CCC(N)=O)C(=O)N[C@@H](Cc2ccc(O)cc2)C(=O)N[C@@H](Cc2ccccc2)C(=O)N2CCC[C@H]2C(=O)N[C@H](C)C(=O)N1C [UPAR-340] ({Pentanoyl(4-Me)}-C[Cit]QYFP[dA][NMeI]LC-NH2; disulfide 1-10)
IC50: ≥ 126 nM

Query string: Param item = CC[C@H](C)[C@@H]1NC(=O)[C@@H](C)NC(=O)[C@@H]2CCCN2C(=O)[C@H](Cc2ccccc2)NC(=O)[C@H](C)NC(=O)[C@H](CCC(N)=O)NC(=O)[C@H](CCCNC(N)=O)NC(=O)[C@@H](NC(=O)CCC(C)C)CSSC[C@@H](C(N)=O)NC(=O)[C@H](CC(C)C)NC1=O [UPAR-159] ({Pentanoyl(4-Me)}-C[Cit]QAFP[dA]ILC-NH2; disulfide 1-10) ; retrieve measured IC50.
Result string: ≥ 126 nM

Query string: Param item = CCCCOC(=O)N[C@H]1CSSC[C@@H](C(N)=O)NC(=O)[C@H](CCC)NC(=O)[C@H]([C@@H](C)CC)NC(=O)[C@@H]2C[C@@H](O)CN2C(=O)[C@@H]2C[C@H](F)CN2C(=O)[C@H](Cc2ccccc2)NC(=O)[C@H](Cc2ccc(O)c(O)c2)NC(=O)[C@H](CCCCNC(=O)CN2CCN(CC(=O)O)CCN(CC(=O)O)CCN(CC(=O)O)CC2)NC(=O)[C@H]([C@@H](C)O)NC1=O [UPAR-249] (Butoxycarbonyl-CTK(DOTA)[Dopa]F[Pro(cis-4-F)][Hyp]I[Nva]C-NH2; disulfide 1-10) ; retrieve measured IC50.
Result string: ≤ 10 nM

Query string: Param item = CCCCOC(=O)N[C@H]1CSSC[C@@H](C(N)=O)NC(=O)[C@H](CCC)NC(=O)[C@H]([C@@H](C)CC)NC(=O)[C@@H]2C[C@@H](O)CN2C(=O)[C@@H]2CCCN2C(=O)[C@H](Cc2ccccc2)NC(=O)[C@H](Cc2ccc(O)cc2)NC(=O)[C@H](CCCCNC(=O)CN2CCN(CC(=O)O)CCN(CC(=O)O)CCN(CC(=O)O)CC2)NC(=O)[C@H]([C@@H](C)O)NC1=O [UPAR-248] (Butoxycarbonyl-CTK(DOTA)YFP[Hyp]I[Nva]C-NH2; disulfide 1-10) ; retrieve measured IC50.
Result string: ≤ 10 nM

Query string: Param item = CC[C@H](C)[C@@H]1NC(=O)[C@@H]2C[C@@H](O)CN2C(=O)[C@@H]2CCCN2C(=O)[C@H](Cc2ccccc2)NC(=O)[C@H](Cc2ccc(O)cc2)NC(=O)[C@H](CCC(N)=O)NC(=O)[C@H](CCCNC(N)=O)NC(=O)[C@@H](NC(=O)CCC(C)C)CSSC[C@@H](C(N)=O)NC(=O)[C@H](CC(C)C)NC1=O [UPAR-174] ({Pentanoyl(4-Me)}-C[Cit]QYFP[Hyp]ILC-NH2; disulfide 1-10) ; retrieve measured IC50.
Result string: ≤ 10 nM

----------
Documented Kd across a set of compounds
TARGET OR TEST SYSTEM: human uPAR (uPAR-Fc) (Homo sapiens)
Construct: comprising amino acids Leu23-Arg303 according to UniProt entry Q03405.1; purchased R&D Systems 10378-UK-100
MEASUREMENT PROTOCOL: Surface plasmon resonance (SPR) assay, single cycle kinetics
Type: binding
PROTOCOL CONDITIONS: pKD category for uPAR SPR activity assay; uPAR-Fc on Protein A-Chip, single cycle kinetics, 25°C; read-out: pKD CAT (converted)
Where a SMILES comes first, the peptide text is derived from it. Bridges are numbered along the chain shown (N, C = ends). [ ]: non-standard residue; d: D form. The star is where a group is joined. DOTA = O=C(O)CN1CCN(CC(=O)O)CCN(CC(=O)*)CCN(CC(=O)O)CC1; Pro(cis-4-F) = O=C(O)[C@@H]1C[C@H](F)CN1; Dopa = N[C@@H](Cc1ccc(O)c(O)c1)C(=O)O; Hyp = O=C(O)[C@@H]1C[C@@H](O)CN1; Pentanoyl(4-Me) = CC(C)CCC(=O)*; Cit = NC(=O)NCCC[C@H](N)C(=O)O; Butoxycarbonyl = CCCCOC(=O)*; Dab = NCC[C@H](N)C(=O)O; Nva = CCC[C@H](N)C(=O)O

Some solved cases for reference:
COMPOUND: CC[C@H](C)[C@@H]1NC(=O)[C@H](CCCCNC(=O)CN2CCN(CC(=O)O)CCN(CC(=O)O)CCN(CC(=O)O)CC2)NC(=O)[C@@H]2CCCN2C(=O)[C@H](Cc2ccccc2)NC(=O)[C@H](Cc2ccc(O)cc2)NC(=O)[C@H](CCC(N)=O)NC(=O)[C@@H](C)NC(=O)[C@@H](NC(=O)CCC(C)C)CSSC[C@@H](C(N)=O)NC(=O)[C@H](CC(C)C)NC1=O [UPAR-414] ({Pentanoyl(4-Me)}-C[dA]QYFPK(DOTA)ILC-NH2; disulfide 1-10)
Kd: 10 to 100 nM
--
COMPOUND: CC[C@H](C)[C@@H]1NC(=O)[C@H]([C@@H](C)CC)NC(=O)[C@@H](C)NC(=O)[C@@H]2CCCN2C(=O)[C@H](Cc2ccccc2)NC(=O)[C@H](Cc2ccc(O)cc2)NC(=O)[C@H](CCC(N)=O)NC(=O)[C@H](CCCNC(N)=O)NC(=O)[C@@H](NC(=O)CCC(C)C)CSSC[C@@H](C(N)=O)NC1=O [UPAR-405] ({Pentanoyl(4-Me)}-C[Cit]QYFP[dA]IIC-NH2; disulfide 1-10)
Kd: 1.58 to 10 nM

Query string: Param item = CCCCOC(=O)N[C@H]1CSSC[C@@H](C(N)=O)NC(=O)[C@H](CCC)NC(=O)[C@H]([C@@H](C)CC)NC(=O)[C@@H]2C[C@@H](O)CN2C(=O)[C@@H]2C[C@H](F)CN2C(=O)[C@H](Cc2ccccc2)NC(=O)[C@H](Cc2ccc(O)c(O)c2)NC(=O)[C@H](CCNC(=O)CN2CCN(CC(=O)O)CCN(CC(=O)O)CCN(CC(=O)O)CC2)NC(=O)[C@H]([C@@H](C)O)NC1=O [UPAR-456] (Butoxycarbonyl-CT[Dab](DOTA)[Dopa]F[Pro(cis-4-F)][Hyp]I[Nva]C-NH2; disulfide 1-10) ; retrieve measured Kd.
Result string: < 1.58 nM
